- protocol-text: Tmax in dog at 3 mg/kg, po or 1 mg/kg, iv by LC/MS/MS analysis
- Type: ADME, organism-based, Canis lupus familiaris
- measurement-conditions: in vivo
Answer each item with its documented Tmax.
Write down the numeric answer in h and omit the unit.

QUERY: Any idea what Tmax was measured for "CC#C[C@@H](CC(=O)O)c1ccc(OCc2ccc(CN3CCC4(CCc5ccccc54)CC3)s2)cc1" ?
RESULT: 2

QUERY: Form field: reported Tmax of "CC#C[C@@H](CC(=O)O)c1ccc(OCc2ccc(CN3CCCc4cccc(OC)c43)s2)cc1"
RESULT: 0.5

====

- protocol-text: Tmax in mouse at 10 mg/kg, po or 1 mg/kg, iv by LC/MS/MS analysis
- Format: ADME, organism-based
- measurement-conditions: in vivo
property-label: Tmax

QUERY: Returns the measured Tmax for the input compound. Input: CC#C[C@@H](CC(=O)O)c1ccc(OCc2ccc(CN3CCC4(C=Cc5ccccc54)CC3)cc2)cc1 [LY2881835]
RESULT: 30 min
